Ref: patent US20260274955A1

target: anti-CD28 Fab (SEQ ID NOs: 202, 203); assay: phage binding ELISA; biotinylated anti-CD28 Fab captured on neutravidin plate, clonal phage supernatant, anti-M13-HRP detection;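 further: before crude clonal phage supernatants were added, wells were preincubated with CD28 antigen in blocking buffer or with blocking buffer only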
Sequence (VH, as listed by the source, chain 1 of 2): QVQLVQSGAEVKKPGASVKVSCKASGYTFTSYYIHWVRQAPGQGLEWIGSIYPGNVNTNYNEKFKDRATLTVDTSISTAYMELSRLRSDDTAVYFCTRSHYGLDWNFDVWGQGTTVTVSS
Sequence (VL, as listed by the source, chain 2 of 2): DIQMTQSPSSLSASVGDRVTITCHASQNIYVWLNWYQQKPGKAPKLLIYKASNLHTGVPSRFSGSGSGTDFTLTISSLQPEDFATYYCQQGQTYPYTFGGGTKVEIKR
Would you mind labelling by Anti-CD28 Fab (SEQ ID NOs: 202, 203) signal? At or over 0.8 is Y, under is N.

Input line: Textbook exercise: given the entry SCSAGASYAWPMCI [Phage-1255] , state whether its Anti-CD28 Fab (SEQ ID NOs: 202, 203) signal is greater than or equal to 0.8.
Output line: N
